meta.source: the array DNA melting data of Ke et al. (doi:10.1101/2024.01.08.574731)

# method.summary: folding enthalpy; higher = less favourable; fluorescence melt of hairpins on a sequencing array, two-state fit
# measurement.setup: sodium 0.088 M
We use -30 kcal/mol as the dividing line for folding enthalpy: on or above the line is t, below is f.

>  <residue.sequence>
GAAGGGACGAAAGTCTTC (((..(((....))))))

>  <class.assignment>
t

$$$$
>  <residue.sequence>
GATCTCCGAGGAGATC ((((((....))))))

>  <class.assignment>
f

$$$$
>  <residue.sequence>
GATCAGTCTGCTGATC ((((((....))))))

>  <class.assignment>
f

$$$$
>  <residue.sequence>
GCAGACGGAAACACCTGC ((((..(....)..))))

>  <class.assignment>
t

$$$$
>  <residue.sequence>
GTAATCCGAAAGGACTAC (((.(((....))).)))

>  <class.assignment>
t

$$$$
>  <residue.sequence>
GGCGATGGAAACGTTGCC (((.(.(....).).)))

>  <class.assignment>
f

$$$$
>  <residue.sequence>
GATCAAAGGATTGATC ((((((....))))))

>  <class.assignment>
t

$$$$
>  <residue.sequence>
GTATACACGAAAGTGTAC (((..(((....))))))

>  <class.assignment>
t

$$$$
>  <residue.sequence>
GATCGGAAACCCGATC ((((((....))))))

>  <class.assignment>
f

$$$$
>  <residue.sequence>
GGGGCCGAAAGGCCACCC ((((((....)))..)))

>  <class.assignment>
t

$$$$
